Data credit: the NIST ThermoML archive (doi:10.1016/j.fluid.2016.02.009)

mass density: recorded values
# recorded conditions: 313.15 K; 5000 kPa; Liquid; Vibrating tube method
The response must be a number in kg/m3 with no trailing unit.

compound	output unit	mass density
CC(C)OC(C)C [diisopropyl ether]	kg/m3	709.64
CCCCOC [butyl methyl ether]	kg/m3	731.47
CCCOCCC [dipropyl ether]	kg/m3	733.9
COC(C)(C)C [2-methoxy-2-methylpropane]	kg/m3	726.07
CC(C)CCOCCC(C)C [di-(3-methylbutyl) ether]	kg/m3	763.24
CCCCCOCCCCC [dipentyl ether]	kg/m3	771.35
CCOC(C)(C)C [2-ethoxy-2-methylpropane]	kg/m3	726.68

Pending compound:
Incoming: Can you look up the measured mass density of CCCCOCC [butyl ethyl ether] for me?
Outgoing: 736.34

====

# recorded conditions: 308.15 K; 60000 kPa; Liquid; Vibrating tube method
mass density: recorded values
The response must be a number in kg/m3 with no trailing unit.

Examples from the recorded data:
structure string	endpoint	numeric readout
CC(C)OC(C)C	mass density	766.45
CCCCOC	mass density	783.07
COC(C)(C)C	mass density	780.65

Incoming: Can you look up the measured mass density of CCOC(C)(C)C for me?
Outgoing: 780.9

Incoming: What would you report for CCCCCOCCCCC ?
Outgoing: 812.24

Incoming: What would you report for CCCOCCC ?
Outgoing: 784.7

Incoming: What would you report for CCCCOCC ?
Outgoing: 786.19

Incoming: What would you report for CC(C)CCOCCC(C)C ?
Outgoing: 806.11

====

# recorded conditions: 313.15 K; 30000 kPa; Liquid; Vibrating tube method
mass density: recorded values
The response must be a number in kg/m3 with no trailing unit.

Examples from the recorded data:
molecule	numeric readout
COC(C)(C)C [2-methoxy-2-methylpropane]	752.99
CCCOCCC [dipropyl ether]	758.55
CCCCCOCCCCC [dipentyl ether]	790.53

Incoming: Can you look up the measured mass density of CCCCOCC [butyl ethyl ether] for me?
Outgoing: 760.38

====

# recorded conditions: 293.15 K; 50000 kPa; Liquid; Vibrating tube method
mass density: recorded values
The response must be a number in kg/m3 with no trailing unit.

compound	output unit	mass density
CCCCOCC [butyl ethyl ether]	kg/m3	790.66
CC(C)CCOCCC(C)C [di-(3-methylbutyl) ether]	kg/m3	809.84
CCCOCCC [dipropyl ether]	kg/m3	789.18

Incoming: Can you look up the measured mass density of CCOC(C)(C)C [2-ethoxy-2-methylpropane] for me?
Outgoing: 785.19

Incoming: What would you report for CCCCCOCCCCC [dipentyl ether] ?
Outgoing: 816.26

Incoming: What would you report for CCCCOC [butyl methyl ether] ?
Outgoing: 787.7

Incoming: What would you report for CC(C)OC(C)C [diisopropyl ether] ?
Outgoing: 770.48

Incoming: What would you report for COC(C)(C)C [2-methoxy-2-methylpropane] ?
Outgoing: 785.09

====

# recorded conditions: 303.15 K; 10000 kPa; Liquid; Vibrating tube method
mass density: recorded values
The response must be a number in kg/m3 with no trailing unit.

structure string	mass density [kg/m3]
CCCCOCC	750.9
CC(C)CCOCCC(C)C	775.41
CC(C)OC(C)C	725.79

Incoming: Can you look up the measured mass density of CCOC(C)(C)C for me?
Outgoing: 742.38

Incoming: What would you report for CCCOCCC ?
Outgoing: 748.78

Incoming: What would you report for CCCCOC ?
Outgoing: 746.66

Incoming: What would you report for CCCCCOCCCCC ?
Outgoing: 783.2

Incoming: What would you report for COC(C)(C)C ?
Outgoing: 742.05
